Values compiled from patent US20240199542A1.

System: Pharbitis purpurea (PHBPU)
EXPERIMENT_SUMMARY: Herbicidal pre-emergence action
Assay type: in vivo
RUN_PARAMETERS: 1280 g/ha, graded after ca. 3 weeks
Listed compounds paired with reported Pre-emergence activity against PHBPU
RECORDED_METRIC: Pre-emergence activity against PHBPU (%)

>>> measurement("O=C(CC1CCC(=O)N1Cc1cccc(F)c1F)NCC(F)(F)F (racemic) [Example I-090]")
100
>>> measurement("O=C(CC1CCC(=O)N1Cc1cccc(F)c1F)OCCOc1ccc(Cl)cc1 (racemic) [Example I-033]")
80
>>> measurement("O=C(CC1CCC(=O)N1Cc1cccc(F)c1F)OCCOc1ccc(F)cc1 (racemic) [Example I-007]")
80
>>> measurement("CC1(C)CCC(=O)C(C(=O)CC2CCC(=O)N2Cc2cccc(F)c2F)C1=O (racemic) [Example I-178]")
90
